Test system: redroot pigweed (Amaranthus retroflexus L.)
Assay: Test Example 1: foliar treatment, growth inhibition rate, redroot pigweed
Type: in vivo
Settings: 31 g/ha active ingredient, visually observed 17th to 23rd day after application
Below is a list of entries, each paired with its recorded Growth inhibition rate (%) redroot pigweed value.
readoutName: Growth inhibition rate (%) redroot pigweed

molecule	resultNumber
CCSC(=O)Oc1c(C(=O)c2ccc(S(C)(=O)=O)c(CC#N)c2C)cnn1C	80
CCn1ncc(C(=O)c2ccc(S(C)(=O)=O)c(OCCOC)c2C)c1OC(=O)SC	100
CCSC(=O)Oc1c(C(=O)c2ccc(S(C)(=O)=O)c(OC(C)COC)c2C)cnn1C (centres unmarked)	90
CCSC(=O)Oc1c(C(=O)c2ccc(C(F)(F)F)cc2S(C)(=O)=O)cnn1CC	75
CCOc1c(S(C)(=O)=O)ccc(C(=O)c2cnn(CC)c2OC(=O)SCC)c1C	90
CCSC(=O)Oc1c(C(=O)c2ccc(S(C)(=O)=O)c(OCC(OC)OC)c2C)cnn1C	98
CCCOc1c(S(C)(=O)=O)ccc(C(=O)c2cnn(CC)c2OC(=O)SCC)c1C	95
CCSC(=O)Oc1c(C(=O)c2ccc(S(C)(=O)=O)c(C(=O)OC)c2Cl)cnn1CC	100

---

System: barnyardgrass (Echinochloa crus-galli L.)
Experiment: Test Example 1: foliar treatment, growth inhibition rate, barnyardgrass
Assay type: in vivo
Settings: 31 g/ha active ingredient, visually observed 17th to 23rd day after application
readoutName: Growth inhibition rate (%) Barnyardgrass

molecule	unitInfo	resultNumber
CCCSC(=O)Oc1c(C(=O)c2ccc(S(C)(=O)=O)c(C(=O)OC)c2C)cnn1C [compound 84]	%	98
C=CCSC(=O)Oc1c(C(=O)c2ccc(S(C)(=O)=O)c(C(=O)OC)c2C)cnn1CC [compound 99]	%	98
COCCOc1c(S(C)(=O)=O)ccc(C(=O)c2cnn(C)c2OC(=O)SC(C)C)c1C [compound 207]	%	95
CCC(C)SC(=O)Oc1c(C(=O)c2ccc(S(C)(=O)=O)c(C(=O)OC)c2C)cnn1CC (centres unmarked) [compound 89]	%	100
CCC(C)SC(=O)Oc1c(C(=O)c2ccc(S(C)(=O)=O)c(OCCOC)c2C)cnn1C (centres unmarked) [compound 239]	%	98
CCSC(=O)Oc1c(C(=O)c2ccc(S(C)(=O)=O)c(OC(C)COC)c2C)cnn1C (centres unmarked) [compound 236]	%	60
CCSC(=O)Oc1c(C(=O)c2ccc(S(C)(=O)=O)c(C(=O)SC)c2Cl)cnn1C [compound 31]	%	100
CCn1ncc(C(=O)c2ccc(S(C)(=O)=O)c(OCCOC)c2C)c1OC(=O)SC(C)C [compound 208]	%	95

---

Test system: rice (Oryza sativa L.)
Assay: Test Example 1: foliar treatment, growth inhibition rate, rice
Format: in vivo
Settings: 31 g/ha active ingredient, visually observed 17th to 23rd day after application

smilesCode	Growth inhibition rate (%) Rice
CCSC(=O)Oc1c(C(=O)c2ccc(S(C)(=O)=O)c(C(=O)OC)c2Cl)cnn1CC	90
CCOCc1c(S(C)(=O)=O)ccc(C(=O)c2cnn(C)c2OC(=O)SCC)c1C	95
CCSC(=O)Oc1c(C(=O)c2ccc(S(C)(=O)=O)c(CS(C)(=O)=O)c2C)cnn1C	50
CCSC(=O)Oc1c(C(=O)c2ccc(S(C)(=O)=O)c(OCC(F)(F)F)c2C)cnn1C	60

---

# Growth inhibition rate (%) redroot pigweed values compiled below
System: redroot pigweed
Experiment: Test Example 2: soil application on the day after sowing, growth inhibition rate, redroot pigweed
Type: in vivo, Amaranthus retroflexus L.
Settings: 250 g/ha active ingredient, observed on 19th to 24th day
readoutName: Growth inhibition rate (%) redroot pigweed

compound	unitInfo	resultNumber
COCCOc1c(S(C)(=O)=O)ccc(C(=O)c2cnn(C)c2OC(=O)SC(C)C)c1C [compound 207]	%	100
CCSC(=O)Oc1c(C(=O)c2ccc(S(C)(=O)=O)c(S(C)(=O)=O)c2Cl)cnn1C [compound 224]	%	100
CCn1ncc(C(=O)c2ccc(S(C)(=O)=O)c(OCCOC)c2C)c1OC(=O)SC(C)C [compound 208]	%	100
COC(=O)c1c(S(C)(=O)=O)ccc(C(=O)c2cnn(C)c2OC(=O)SCc2ccccc2)c1C [compound 92]	%	70
CCOc1c(S(C)(=O)=O)ccc(C(=O)c2cnn(C)c2OC(=O)SCC)c1C [compound 36]	%	100
CCSC(=O)Oc1c(C(=O)c2ccc(S(C)(=O)=O)c(CCOC)c2C)cnn1C [compound 75]	%	100
CCn1ncc(C(=O)c2ccc(S(C)(=O)=O)c(C(=O)OC)c2C)c1OC(=O)SC(C)(C)C [compound 91]	%	100
C=CCSC(=O)Oc1c(C(=O)c2ccc(S(C)(=O)=O)c(C(=O)OC)c2C)cnn1CC [compound 99]	%	95
CCn1ncc(C(=O)c2ccc(S(C)(=O)=O)c(C(=O)OC)c2Cl)c1OC(=O)SC [compound 97]	%	100
CCSC(=O)Oc1c(C(=O)c2ccc(S(C)(=O)=O)c(OC3CCOC3)c2C)cnn1C (centres unmarked) [compound 217]	%	95
CCOCCOc1c(S(C)(=O)=O)ccc(C(=O)c2cnn(C)c2OC(=O)SCC)c1C [compound 77]	%	90
CCSC(=O)Oc1c(C(=O)c2ccc(S(C)(=O)=O)c(OCC3CCCCO3)c2C)cnn1C (centres unmarked) [compound 215]	%	60
CCC(C)SC(=O)Oc1c(C(=O)c2ccc(S(C)(=O)=O)c(C(=O)OC)c2C)cnn1CC (centres unmarked) [compound 89]	%	90
CCCSC(=O)Oc1c(C(=O)c2ccc(S(C)(=O)=O)c(OCCOC)c2C)cnn1C [compound 219]	%	100
CSC(=O)Oc1c(C(=O)c2ccc(S(C)(=O)=O)c(C3=NOCC3)c2C)cnn1C [compound 40]	%	100
CCSC(=O)Oc1c(C(=O)c2ccc(S(C)(=O)=O)c(CN(C)CC#N)c2C)cnn1C [compound 210]	%	20
CCSC(=O)Oc1c(C(=O)c2ccc(S(C)(=O)=O)c(C#N)c2C)cnn1C [compound 82]	%	50
CCSC(=O)Oc1c(C(=O)c2ccc(S(C)(=O)=O)c(OC(C)C)c2C)cnn1C [compound 37]	%	50
COCc1c(S(C)(=O)=O)ccc(C(=O)c2cnn(C)c2OC(=O)SC)c1Cl [compound 74]	%	95
CCCOc1c(S(C)(=O)=O)ccc(C(=O)c2cnn(C)c2OC(=O)SCC)c1C [compound 66]	%	95
CCSC(=O)Oc1c(C(=O)c2ccc(S(C)(=O)=O)c(C(=O)OC)c2Cl)cnn1C [compound 27]	%	100
CCSC(=O)Oc1c(C(=O)c2ccc(S(C)(=O)=O)c(OCCOC)c2Cl)cnn1C [compound 216]	%	100
CCOc1c(S(C)(=O)=O)ccc(C(=O)c2cnn(CC)c2OC(=O)SCC)c1C [compound 58]	%	90
CCSC(=O)Oc1c(C(=O)c2ccc(S(C)(=O)=O)c(CS(C)(=O)=O)c2C)cnn1C [compound 72]	%	50
CCSC(=O)Oc1c(C(=O)c2ccc(S(C)(=O)=O)c(OCC(F)(F)F)c2C)cnn1C [compound 79]	%	90
CCSC(=O)Oc1c(C(=O)c2ccc(S(C)(=O)=O)c(OCC(C)OC)c2C)cnn1C (centres unmarked) [compound 189]	%	100
COCCOc1c(S(C)(=O)=O)ccc(C(=O)c2cnn(C)c2OC(=O)SC)c1C [compound 233]	%	100
CCSC(=O)Oc1c(C(=O)c2ccc(S(C)(=O)=O)c(COCC(F)(F)F)c2Cl)cnn1C [compound 70]	%	100
CCSC(=O)Oc1c(C(=O)c2ccc(S(C)(=O)=O)c(OC)c2Cl)cnn1C [compound 214]	%	90
CCSC(=O)Oc1c(C(=O)c2ccc(S(C)(=O)=O)c(CC(=O)OC)c2C)cnn1C [compound 64]	%	80
CCOCc1c(S(C)(=O)=O)ccc(C(=O)c2cnn(C)c2OC(=O)SCC)c1C [compound 73]	%	100
CCCCCCCc1c(S(C)(=O)=O)ccc(C(=O)c2cnn(C)c2OC(=O)SCC)c1C [compound 225]	%	30

---

Tested on: rice
Test: Test Example 2: soil application on the day after sowing, growth inhibition rate, rice
Format: in vivo, Oryza sativa L.
Conditions: Oryza sativa, 250 g/ha active ingredient, observed on 19th to 24th day
Quick list: inhibition at 250 g/ha per entry.
readoutName: inhibition at 250 g/ha

smilesCode	result
CCSC(=O)Oc1c(C(=O)c2ccc(S(C)(=O)=O)c(C(=O)OC)c2C)cnn1C	95%
CCSC(=O)Oc1c(C(=O)c2ccc(S(C)(=O)=O)c(C(=O)OC)c2C)cnn1CC	100%
CCSC(=O)Oc1c(C(=O)c2ccc(S(C)(=O)=O)c(OC)c2C)cnn1C	90%
CCSC(=O)Oc1c(C(=O)c2ccc(S(C)(=O)=O)c(OCCOC)c2C)cnn1C	70%
CCSC(=O)Oc1c(C(=O)c2ccc(S(C)(=O)=O)c(OCC(OC)OC)c2C)cnn1C	90%
CCSC(=O)Oc1c(C(=O)c2ccc(S(C)(=O)=O)c(OC(F)F)c2C)cnn1C	60%
CCSC(=O)Oc1c(C(=O)c2ccc(S(C)(=O)=O)c(OCCOC)c2C)cnn1CC	98%
CCSC(=O)Oc1c(C(=O)c2ccc(S(C)(=O)=O)c(C3=NOCC3)c2C)cnn1C	80%

Data credit: patent US8030498B2
